# inhibition of SARS-CoV-2 cytopathic effect per entry
System: Vero E6 infected with SARS-CoV-2
Experiment: inhibition of SARS-CoV-2 cytopathic effect; higher = more antiviral protection, active = above 15
Details: 833.33 nM; 48 h
quantity: inhibition of SARS-CoV-2 cytopathic effect (%)

>>> recorded_number("COC(=O)C1=C(C)NC(C)=C(C(=O)OCCCN2CCC(c3ccccc3)(c3ccccc3)CC2)[C@@H]1c1cccc([N+](=O)[O-])c1")
-3.36
>>> recorded_number("CCOC(=O)Nc1ccc2c(c1)N(C(=O)CCN(CC)CC)c1ccccc1S2")
-1.38
>>> recorded_number("c1ccc2nc(N3CCNCC3)ccc2c1")
1.22
>>> recorded_number("C[C@]12CCC(=O)C=C1CC[C@@H]1[C@@H]2CC[C@@]2(C)[C@H]1CC[C@]2(C)O")
1.19
>>> recorded_number("O=C1NC(=O)c2c1c1c3ccccc3n3c1c1c2c2ccccc2n1C1CCC3O1")
4.22
>>> recorded_number("c1ccc2c(c1)[I+]c1ccccc1-2")
-1.09
>>> recorded_number("Cc1nnc(NS(=O)(=O)c2ccc(N)cc2)s1")
1.2
>>> recorded_number("CC(C)CCC[C@@H](C)[C@H]1CC[C@H]2[C@@H]3CC=C4C[C@@H](O)CC[C@]4(C)[C@H]3CC[C@]12C")
-1.83
>>> recorded_number("CCOCOC[C@H](C[C@H](C)C(=O)NO)NC(=O)c1ccc(Oc2ccccc2)cc1")
-3.29
>>> recorded_number("Oc1ccc(O)cc1 [hydroquinone]")
1.2
>>> recorded_number("CCCCCCCN(CC)CCC[C@@H](O)c1ccc(NS(C)(=O)=O)cc1 (racemic) [ibutilide]")
0.97
>>> recorded_number("COCC(=O)Nc1c(I)c(C(=O)NCC(O)CO)c(I)c(C(=O)N(C)CC(O)CO)c1I (stereo not drawn) [iopromide]")
-0.15
>>> recorded_number("COC(=O)N[C@@H](C)CNc1nccc(-c2cn(C(C)C)nc2-c2cc(Cl)cc(NS(C)(=O)=O)c2F)n1")
6.46
>>> recorded_number("CCc1c2c(nc3ccc(OC(=O)N4CCC(N5CCCCC5)CC4)cc13)-c1cc3c(c(=O)n1C2)COC(=O)[C@]3(O)CC")
1.56
>>> recorded_number("O=C(O)CCc1c[nH]c2ccccc12")
-0.72
>>> recorded_number("COC1CCN(C(=O)c2cc(Cc3n[nH]c(=O)c4ccccc34)ccc2F)CC1")
3.41
>>> recorded_number("COc1ccccc1OCC(O)CO (stereo not drawn)")
0.99
>>> recorded_number("O=C(Nc1ccccc1)[C@]12C[C@H]1/C(=N\\O)c1ccccc1O2")
-0.42
